test system: RARb homodimer (NR concentration 270 nM); assay: PBM binding z-score (relative to random genomic background probes); higher = stronger binding; sequences stand for … in GC…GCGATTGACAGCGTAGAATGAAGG
Response key: met means PBM binding z-score >= 3; not met means PBM binding z-score < 3.

Please review the following examples before continuing.
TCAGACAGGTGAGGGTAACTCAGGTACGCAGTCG | not met
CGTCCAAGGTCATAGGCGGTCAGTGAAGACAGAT | met

Check this sequence for PBM binding z-score at or above 3: "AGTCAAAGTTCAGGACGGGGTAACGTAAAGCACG"
met

Reported PBM binding z-score at or above 3? "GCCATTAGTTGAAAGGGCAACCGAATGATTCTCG"
not met

====

test system: PPARg DBDmut IVT, anti-PPARg (DBD mutation: PPARg1 K132A/R137A, NR concentration 270 nM); experiment: PBM binding z-score (relative to random genomic background probes); higher = stronger binding; sequences stand for … in GC…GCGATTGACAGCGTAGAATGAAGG
parameter measured: PBM binding z-score
Give bare numbers.

# batch size: 4; output PBM binding z-score per entry
1. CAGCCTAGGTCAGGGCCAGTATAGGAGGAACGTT
2. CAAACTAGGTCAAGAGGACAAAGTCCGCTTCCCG
3. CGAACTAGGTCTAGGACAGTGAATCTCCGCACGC
4. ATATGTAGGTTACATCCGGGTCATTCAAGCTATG

[-1.52, 2.91, -0.934, 2.95]

Provide the reported PBM binding z-score of each entry below, same order.
1. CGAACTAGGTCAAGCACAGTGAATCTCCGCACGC
2. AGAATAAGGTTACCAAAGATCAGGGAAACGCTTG
3. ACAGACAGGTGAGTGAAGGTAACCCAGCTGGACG
4. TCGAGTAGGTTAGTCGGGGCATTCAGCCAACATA
5. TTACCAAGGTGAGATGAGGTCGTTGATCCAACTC

1: 3.74; 2: 1.13; 3: -0.411; 4: -0.18; 5: 0.496

Quick request: PBM binding z-score for each listed item, please.
1. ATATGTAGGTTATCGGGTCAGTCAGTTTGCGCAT
2. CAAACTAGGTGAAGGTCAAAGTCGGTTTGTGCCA
3. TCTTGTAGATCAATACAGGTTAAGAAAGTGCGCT

1: 2.31; 2: 0.309; 3: 1.31

====

tested on: FXR:RXRa (NR concentration 270 nM, RXRa partner concentration 90 nM); assay: PBM binding z-score (relative to random genomic background probes); higher = stronger binding; sequences stand for … in GC…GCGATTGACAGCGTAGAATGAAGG
We'd kindly ask you to apply these PBM binding z-score classes: L (below 4), M (4 to below 6), H (6 or more)

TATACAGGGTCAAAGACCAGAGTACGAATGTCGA | H
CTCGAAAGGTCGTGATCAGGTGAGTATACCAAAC | M
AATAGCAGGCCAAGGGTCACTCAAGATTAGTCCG | L

Attention now turns to another entry.
Kindly state the category for this sequence: "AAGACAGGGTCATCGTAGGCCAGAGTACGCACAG"
H

====

tested on: THRa homodimer (NR concentration 90 nM); experiment: PBM binding z-score (relative to random genomic background probes); higher = stronger binding; sequences stand for … in GC…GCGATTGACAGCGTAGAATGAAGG
parameter measured: PBM binding z-score

Would you please look over these solved cases?
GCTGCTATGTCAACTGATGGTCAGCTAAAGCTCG | -1.13
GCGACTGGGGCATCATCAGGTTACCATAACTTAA | 1.31
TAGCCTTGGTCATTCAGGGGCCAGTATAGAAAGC | -0.852

Hi there! I need PBM binding z-score for each item below, if you can.
1. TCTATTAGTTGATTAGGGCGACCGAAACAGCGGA
2. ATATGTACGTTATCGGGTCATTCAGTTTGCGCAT
3. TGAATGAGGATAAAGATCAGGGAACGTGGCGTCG
4. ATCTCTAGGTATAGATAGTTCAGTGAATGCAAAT
5. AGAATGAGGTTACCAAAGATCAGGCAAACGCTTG
6. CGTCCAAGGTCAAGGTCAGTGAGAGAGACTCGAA
7. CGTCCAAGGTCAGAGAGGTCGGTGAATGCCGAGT

1: 0.249; 2: 2.69; 3: 0.0902; 4: -0.135; 5: 0.538; 6: 3.35; 7: 1.38

Count: 8. Required value per item: PBM binding z-score.
1. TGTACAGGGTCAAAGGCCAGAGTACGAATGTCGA
2. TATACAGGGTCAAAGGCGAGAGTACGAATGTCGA
3. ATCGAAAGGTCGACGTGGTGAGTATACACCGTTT
4. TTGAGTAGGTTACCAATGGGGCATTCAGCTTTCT
5. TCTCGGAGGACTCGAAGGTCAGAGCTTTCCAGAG
6. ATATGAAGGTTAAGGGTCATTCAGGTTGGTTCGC
7. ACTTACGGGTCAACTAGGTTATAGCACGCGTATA
8. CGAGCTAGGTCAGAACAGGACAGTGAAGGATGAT

0.326
0.888
-0.255
-0.426
-0.0603
1.5
0.857
-0.106
